assay-remarks: Metabolic stability in human liver microsomes assessed as intrinsic clearance at 1 uM in presence of NADPH by HPLC-UV analysis
Type: ADME, Microsome
measurement-setup: read-out: CLH
Consider the following compounds; for each one, report its microsomal CLint at 1 µM.
Hi! Could you send only the number? It should be in µL/min/mg, unit omitted.

Challenge: Quote microsomal CLint at 1 µM reported for CN(C)CCn1cc(C(=O)N2CCC3(CC2)OCc2ccccc23)c2ccc(Cl)cc21 [RO-5028442] please.
Response given: 20

Challenge: Identify the reported microsomal CLint at 1 µM for the following entry. C[C@H](NC(=O)[C@@H](CC(=O)N1CCC(N2CCCCC2)CC1)N1C(=O)[C@@H](N2C(=O)OC[C@@H]2c2ccccc2)[C@H]1/C=C/c1ccccc1)c1ccccc1
Response given: 156

Challenge: Please supply the value of reported microsomal CLint at 1 µM for the item Cc1ccccc1N1CCN(C(=O)C2CN(C(=O)C3CCCC3)Cc3cc(Cl)ccc32)CC1 (racemic)
Response given: 188
